Biological target: recombinant human MASP2 active protease (amino acids 297-686, C-terminal His Tag) (human, UniProt O00187 297-686)
Sequence (O00187 other isoform, or with tags, fused parts or gaps limits assumed): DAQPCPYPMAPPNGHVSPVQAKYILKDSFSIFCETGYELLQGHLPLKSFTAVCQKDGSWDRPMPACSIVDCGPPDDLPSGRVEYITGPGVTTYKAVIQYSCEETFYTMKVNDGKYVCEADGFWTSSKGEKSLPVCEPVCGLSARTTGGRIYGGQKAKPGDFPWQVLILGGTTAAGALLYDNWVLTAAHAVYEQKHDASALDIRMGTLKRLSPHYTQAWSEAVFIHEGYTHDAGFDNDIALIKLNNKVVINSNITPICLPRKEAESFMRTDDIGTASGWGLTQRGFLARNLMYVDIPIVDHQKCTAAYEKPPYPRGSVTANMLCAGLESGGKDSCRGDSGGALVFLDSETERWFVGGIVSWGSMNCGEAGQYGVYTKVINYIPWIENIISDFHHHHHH
Experiment: cell-based or functional assay
Bridge positions count the residues as written; N and C are the ends. Square brackets hold non-standard residues; d marks the D form. Ends that are not written are not given here. Oic = O=C(O)[C@@H]1C[C@@H]2CCCC[C@@H]2N1; tBuAla = CC(C)(C)C[C@H](N)C(=O)O; Pen = CC(C)(S)[C@H](N)C(=O)O; NMeC = CN[C@@H](CS)C(=O)O; NMeA = CN[C@@H](C)C(=O)O; Orn = NCCC[C@H](N)C(=O)O
Label key: Yes means human MASP2 IC50 under 80 nM; No means human MASP2 IC50 of 80 nM or more.

BINDER: [NMeA]ICSRSLP[Oic]I[Pen]I-NH2 (disulfide 3-11; N-terminus assumed; SMILES CC[C@H](C)[C@H](NC(=O)[C@H]1NC(=O)[C@H]([C@@H](C)CC)NC(=O)[C@@H]2C[C@@H]3CCCC[C@@H]3N2C(=O)[C@@H]2CCCN2C(=O)[C@H](CC(C)C)NC(=O)[C@H](CO)NC(=O)[C@H](CCCNC(=N)N)NC(=O)[C@H](CO)NC(=O)[C@@H](NC(=O)[C@@H](NC(=O)[C@H](C)NC)[C@@H](C)CC)CSSC1(C)C)C(N)=O) [((N-Me)A)-IC+SRSLP-(Oic)-I-(Pen)+I-NH2]
ASSIGNED_LABEL: No
--
BINDER: [NMeA]ICSRS[tBuAla]P[Oic]I[Pen]IP-NH2 (disulfide 3-11; N-terminus assumed; SMILES CC[C@H](C)[C@H](NC(=O)[C@H](C)NC)C(=O)N[C@H]1CSSC(C)(C)[C@@H](C(=O)N[C@H](C(=O)N2CCC[C@H]2C(N)=O)[C@@H](C)CC)NC(=O)[C@H]([C@@H](C)CC)NC(=O)[C@@H]2C[C@@H]3CCCC[C@@H]3N2C(=O)[C@@H]2CCCN2C(=O)[C@H](CC(C)(C)C)NC(=O)[C@H](CO)NC(=O)[C@H](CCCNC(=N)N)NC(=O)[C@H](CO)NC1=O) [((N-Me)A)-IC+SRS-((tBu)A)-P-(Oic)-I-(Pen)+IP-NH2]
ASSIGNED_LABEL: Yes
--
BINDER: [NMeA]ICSRSLP[Oic]I[Pen]IP-OH (disulfide 3-11; N-terminus assumed; SMILES CC[C@H](C)[C@H](NC(=O)[C@H](C)NC)C(=O)N[C@H]1CSSC(C)(C)[C@@H](C(=O)N[C@H](C(=O)N2CCC[C@H]2C(=O)O)[C@@H](C)CC)NC(=O)[C@H]([C@@H](C)CC)NC(=O)[C@@H]2C[C@@H]3CCCC[C@@H]3N2C(=O)[C@@H]2CCCN2C(=O)[C@H](CC(C)C)NC(=O)[C@H](CO)NC(=O)[C@H](CCCNC(=N)N)NC(=O)[C@H](CO)NC1=O) [((N-Me)A)-IC+SRSLP-(Oic)-I-(Pen)+IP-OH]
ASSIGNED_LABEL: No
--
BINDER: [Orn]ICSRS[tBuAla]PPI[NMeC]IPD-NH2 (disulfide 3-11; also: HCl salt) [(Orn)-IC+SRS-((tBu)A)-PPI-((N-Me)C)+IPD-NH2 (HCl salt)]
ASSIGNED_LABEL: No
